Assay: proliferation blockers of H69AR lung cancer cells, primary screen, cell-based, human, 86K library (AID 598);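 note: multidrug resistant small cell line overexpressing MRP-1 efflux transporter; 100% = mean luminescence of untreated control wells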
Conditions: H69AR lung tumor viability, ATP luminescence, 72 h; at 10 µM; stronger effect = lower value
In all, about 85,000 compounds went through this assay and about 5,100 (6%) were called active. Shown is part of a subset that was picked to be rich in actives.
Please assign NOT MET whenever viability is at or above 80%, and MET whenever it is below.

Previously resolved entries follow.
MOLECULE	QUALITATIVE LABEL
O=C(CCCn1c(SCC(=O)c2ccc(F)cc2)nc2ccccc2c1=O)NCc1ccco1	MET
CC1(C)CCCC2=C1CC1C(=O)N(c3ccccc3)C(=O)C1C2 (stereo unspecified)	NOT MET
CCOC(=O)C(C)Sc1nc2ccccc2c(=O)n1CC1CCCCC1 (stereo unspecified)	NOT MET
O=C(CSc1nc2cc3c(cc2c(=O)n1CCC1=CCCCC1)OCO3)NCc1ccco1	MET
CC1CC2=C(CC1/C=N/NC(N)=S)C(C)(C)CCC2 (stereo unspecified)	MET

Lab note: confirm whether the reported viability for this molecule is below 80%, equality not counting. molecule: CCc1c(O)nc(SCC(=O)Nc2ccccc2)n(C(C)CC)c1=O (stereo unspecified)
MET

====

Assay: proliferation blockers of H69AR lung cancer cells, primary screen, cell-based, human, 86K library (AID 598);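 note: multidrug resistant small cell line overexpressing MRP-1 efflux transporter; 100% = mean luminescence of untreated control wells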
Settings: H69AR lung tumor viability, ATP luminescence, 72 h; at 10 µM
Out of some 85,000 compounds screened, about 5,100 (6%) were called active.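 Rule for the calls: active = viability at or below 40%; inactive = viability above 40%.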 The entries come from a sample that favours actives as a whole.
Use one of these outcomes when replying: 1.0 for active, 0.0 for inactive

COMPOUND	QUALITATIVE LABEL
CCc1ccc(CNC(=O)C2CCCN(c3nc4ccccc4o3)C2)cc1 (stereo unspecified)	0.0
COCCn1c(-c2ccc(OC)c(OC)c2)nc2ccccc21	0.0
Cc1ccc(-n2ncc3c(=O)n(-c4ccc(C)c(C)c4)c(-c4ccco4)nc32)cc1	1.0
CCOC(=O)c1cnn(Cc2ccccc2Cl)c1N	0.0

Check the results log: what was the call for CCCn1c(C(O)c2cc(OC)ccc2OC)nc2ccccc21 (stereo unspecified) ?
0.0

Check the results log: what was the call for O=C(NCC1CCC(C(=O)O)CC1)OCc1ccccc1 (stereo unspecified) ?
0.0

Check the results log: what was the call for `Cc1ccc(-n2ncc3c2ncn2nc(-c4ccco4)nc32)c(C)c1` ?
0.0

====

Experiment: proliferation blockers of H69AR lung cancer cells, primary screen, cell-based, human, 86K library (AID 598);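 note: multidrug resistant small cell line overexpressing MRP-1 efflux transporter; 100% = mean luminescence of untreated control wells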
Settings: H69AR lung tumor viability, ATP luminescence, 72 h; at 10 µM; stronger effect = lower value
Among all 85,000 compounds or so, about 5,100 (6%) were called active. Only a selection was taken, and actives are over-represented in it overall.
MEASUREMENT KIND: viability (%)
Number in %, nothing else.

COc1ccc(-c2oc(/N=C/N3CCCC3)c(C#N)c2-c2ccc(OC)cc2)cc1 99.1
CCN(CC)CCNC(=O)CCCCCn1c(=O)[nH]c2cc(C(=O)OC)ccc2c1=O 102
Cc1[nH]n(-c2cccc(Cl)c2)c(=O)c1-c1ccc(Cl)cc1 109
Cn1c(Cn2nnc3ccccc32)nnc1SCC(=O)c1ccccc1F 79.3

# ---- query compound ----
Could you tell me which viability is on file for `CCOc1c(Br)cc(/C=C2\C(=O)N(CCC#N)N=C2C)cc1OC` ?
26.2
